READOUT KIND: melting point

CSc1ccc2c(c1)C=C(C(=O)O)C(C(F)(F)F)O2 (stereo not given) : 166 to 168 °C
O=S(=O)(c1ccc(F)cc1)N1CCCC1c1ccco1 (racemic) : 69 °C
C=C(C)C=COc1ccc(C(=O)C=Cc2ccc(OCC(=O)O)c(OC)c2)c(OCC(=O)O)c1 : > 200 °C

Query string: Request the reported melting point associated with CCOCN1C(C)=C(C(=O)OC)C(c2cccc([N+](=O)[O-])c2)C(C(=O)OC)=C1C
Result string: 86 to 88 °C

Query string: Name the recorded melting point for CC(=O)c1cccc(Cl)c1C(=O)O .
Result string: 128 to 129 °C

----------
READOUT KIND: melting point

The following compounds have reported results that may help.
CN(C)CCCc1ccc2c(c1)CCCN2C(=O)c1ccc(-c2ccccc2)cc1 : 100 to 101 °C
CCOc1ccc(C(=O)CCC(=O)Nc2sc(-c3ccccc3)nc2-c2ccccc2)cc1OCC : 139 to 140 °C

Query string: What value of measured melting point is listed for COC(=O)C1=C(C)NC(C)=C(C(=O)OCCN(O)CCC(c2ccccc2)c2ccccc2)C1c1cccc([N+](=O)[O-])c1 (centres undefined) ?
Result string: 100 to 105 °C

Query string: // query melting point value for entry O=C(Nc1cccc(-n2nc(C(F)(F)F)cc2C(F)(F)F)c1)c1cccc(Cl)c1Cl
Result string: 119 to 121 °C

Query string: melting point for Clc1cccnc1-c1cc(OCCc2ccccn2)c2[nH]nc(Nc3cnccn3)c2c1 ?
Result string: 117 to 119 °C

Query string: So what's the measured melting point for this one? CC1(Br)CN(C2SCN(c3cccc(OC(F)(F)F)c3)C2=O)C1=O (centres undefined)
Result string: 111 to 113 °C

Query string: Look at this compound and give its reported melting point. C=C[C@H]1CC(C(=O)O)=C[C@@H](OC(C)C)[C@@H]1NC(C)=O
Result string: 206 to 207 °C

Query string: melting point lookup needed for COc1cc2c(cc1OC(C)C)OC(C)(C)C(Cl)=C2Cl , thanks.
Result string: 80 to 85 °C

Query string: What value of measured melting point is listed for COc1ccc(NN=C(Sc2ccc(C(C)(C)C)cc2)C(C)=O)cc1 ?
Result string: 111 to 113 °C

----------
This listing pairs compounds with measured melting point.

Check out these entries, answers already filled in.
CCCOc1cc(C=CC(=O)N2CCN(c3ccc(NC(=N)c4cccs4)cc3)CC2)cc(OCCC)c1O : 72 to 73 °C
CN1CCC23c4c5cccc4OC2C(=O)CCC3(O)C1C5 (stereo not given) : 223 to 225 °C
COC(=O)c1ccc(C(C)=O)o1 : 101 to 102 °C
COc1ccccc1NC(=O)Nc1nc(Nc2ccccc2-c2ccccc2)nc(N(CCC(=O)O)Cc2cccc3ccccc23)n1 : 218 to 221 °C
COc1ccc(-c2c(C=O)ccc3cc(OC)ccc23)cc1 : 99 to 101 °C
O=C(O)C(=Cc1ccco1)SSC(=Cc1ccco1)C(=O)O : 215 °C
Nc1ncnc2c1c(-c1cccc(O)c1)nn2Cc1oc2ccccc2c(=O)c1-c1ccccc1 : 154 to 158 °C
CC(CNc1nc(Cl)ncc1Cl)NS(C)(=O)=O (stereo not given) : 160 °C

Query string: Which melting point value belongs to CC(C)(CO)NS(=O)(=O)c1cccc(NC(=O)c2cnn3c(C(F)(F)F)cc(-c4ccc(OC(F)(F)F)cc4)nc23)c1 ?
Result string: 212 °C

Query string: Field request: melting point | item: O=c1[nH]c(CCN2CCCCC2)cc2c(O)cccc12
Result string: 261 to 263 °C

Query string: Look up melting point: CNC(=O)c1cccc(NC(=O)Nc2ccccc2)c1
Result string: 209 to 210 °C

Query string: Given the compound CCN(CC)C(=O)n1ccc(S(=O)(=O)c2c(C)cc(Br)cc2C)n1 , what is its reported melting point?
Result string: 96 to 100 °C

Query string: Which melting point value belongs to Nc1ncnc2c1c(-c1ccc(Oc3ccccc3)cc1)cn2[C@H]1CC[C@@H](N2CCCCC2)CC1 ?
Result string: 192 to 195 °C

Query string: melting point lookup needed for c1ccc(C2NCCOC2c2ccccc2)cc1 (stereo not given) , thanks.
Result string: 70 to 72 °C

Query string: Look up melting point for this compound: COC(=O)C(=COCF)c1ccccc1CBr
Result string: 73 to 76 °C

----------
The molecules listed here are annotated with their melting point.

Here's what some known entries look like.
Nc1ccc(OCc2cscn2)cc1 : 114 to 115 °C
C=Cn1cc(C(=O)OCC)c(=O)c2cc(F)c(N3CCNCC3)cc21 : 208 to 210 °C
COCOC1=C(C(N)=O)CC(C#N)(c2ccc(OC)c(OCC3CC3)c2)CC1 (centres undefined) : 120 to 122 °C
CC(=O)C1CCC2C3CCC4CC(O)CCC4(C)C34OC4CC12C (centres undefined) : 160 to 162 °C
O=C(O)C1=Cc2cc(C(F)(F)C(F)(F)F)ccc2OC1C(F)(F)F (centres undefined) : 162 to 165 °C
Cc1c(O[Si](C)(C)C(C)(C)C)cc(O[Si](C)(C)C(C)(C)C)cc1C(=O)O[Si](C)(C)C(C)(C)C : 64 °C
COc1cc(C(=O)C#CCOC(=O)c2cc(OC)c(OC)c(OC)c2)cc(OC)c1OC : 106 to 108 °C
CC1(C)CC(=O)Nc2cc(C(=O)Nc3ccccc3)ccc21 : 249 to 251 °C

Now look at this entry.
Query string: Quick check: melting point of COCCN1CCc2ccc(Nc3ncc(Cl)c(Nc4ccccc4C(=O)NC(C)C)n3)cc2CC1 ?
Result string: 186 to 189 °C

----------
Residues, ends and D or L forms follow the SMILES beside them. *: point of attachment. Cbz = O=C(OCc1ccccc1)*
READOUT KIND: melting point

Example compounds with recorded melting point:
CC(=NOCCOc1ccc(CC2OC(=O)NC2=O)cc1)c1ccc(-c2ccccc2)cc1 (stereo unspecified) : 177 to 179 °C
CC(C)(C)c1cccc(S(=O)(=O)n2c(Cc3ccc(C(=O)O)c(F)c3)cc3cc(C(F)(F)F)ccc32)c1 : 144 °C
COC1CCC(C2=C(Cl)C(=O)c3ccccc3C2=O)CC1 (stereo unspecified) : 110 to 113 °C
CCNC(=O)C(C)NC(=O)C(C)NC(=O)C1CCCN1C(=O)OCc1ccccc1 (stereo not drawn) (Cbz-Pro-Ala-Ala-NHEt; configuration not given here) : 219 to 220 °C
CC(C)C(=N)Nc1cc(F)ccc1N1CCOCC1 : 142 °C

Query string: Looking for the measured melting point of NC(=O)N(O)CC#Cc1cccc(Oc2cccnc2)c1 , can you help?
Result string: 107 to 110 °C

Query string: Which value of melting point has been reported for C=CCn1c(=O)[nH]c(=O)n(-c2ccccc2)c1=O in the records?
Result string: 63 to 65 °C

Query string: Consider the compound shown here: CN1CCC(C2(O)c3cc(Cl)ccc3CC2(C)C)CC1 (stereo unspecified) What is its recorded melting point?
Result string: 181 to 182 °C

Query string: I am curious: what melting point value has been reported for COc1cc2c(cc1O)C1Cc3c(Cl)cc(OC)c(OCC(=O)O)c3CN1CC2 (stereo unspecified) ?
Result string: 172 to 174 °C

Query string: Name the recorded melting point for N#Cc1ccc(-c2ccc(-c3ccc(C#N)cc3)cc2)cc1 .
Result string: 299 to 300 °C

Query string: Recorded melting point of CCOc1cc2c(cc1OCC)C(=C(C#N)SCC(O)CN1CCOCC1)NCC2 (stereo unspecified) , please.
Result string: 97 °C

Query string: So what's the measured melting point for this one? N#CC1CN1C(=O)c1ccco1 (stereo unspecified)
Result string: 73 to 76 °C

Query string: # query: melting point of entry CC(C)(C)COC(=O)COc1ccc(C(=O)CBr)cc1
Result string: 85 to 87 °C

----------
# key: entry, value: melting point

Answered examples (10):
Cc1cnc(C)c(NCCc2c[nH]cn2)n1 : 164 to 165 °C
CNC(=O)c1c(I)c(NC(=O)COC)c(I)c(C(=O)NC(CO)C(=O)O)c1I (racemic) : 247 to 248 °C
COC(=O)CCN1CCC(=C2c3ccn(C)c3CCn3ncnc32)CC1 : 139 °C
CCCCCCCCCCCCCCCCCCOc1cc(C(N)=O)cc(N(CC(=O)O)CC(=O)O)c1 : 213 to 216 °C
COC(=O)[C@@H]1C(=O)NC[C@H]1c1ccc(Cl)cc1 : 166 °C
CC(CCCc1ccccc1)n1nnc2c(=O)[nH]c(C(=O)c3ccccc3)nc21 (stereo unspecified) : 105 °C
O=C(O)C1=Cc2c(ccc(Cl)c2-c2ccco2)OC1C(F)(F)F (stereo unspecified) : 191 to 193 °C
CCCS(=O)c1cc(O)ccc1C (stereo unspecified) : 84 to 85 °C
NCCCCCNc1ncc2ncnc(Nc3ccc(F)c(Cl)c3)c2n1 : 153 to 155 °C
N#Cc1nn(Cc2ccccc2)c2ccccc12 : 91 °C

Query string: Any idea what melting point was measured for CC(C)(C)OC(=O)CN1CCN(CC(=O)O)C1=O ?
Result string: 112 to 113 °C

Query string: Suppose we examine the compound O=C(O)c1ccc(OCCCCCCc2ccc3cc(O)c(O)cc3c2)cc1 ; what melting point value has been reported?
Result string: 160 to 162 °C

Query string: Quick check: melting point of CC(C)=CC(=O)N[C@H]1CC[C@H](CCN2CCC(c3cccc4c3CCO4)CC2)CC1 ?
Result string: 177 °C

Query string: GET /values?readout=melting point&item= CC(C)(C)c1cc2c(c(C(C)(C)C)c1)OC(=O)C2c1ccc(F)cc1 (stereo unspecified)
Result string: 146 to 147 °C

Query string: State the recorded melting point for this entry: Cc1ccc2c(c1)/C(=N\NC(N)=O)C(=O)N2CCN(C(C)C)C(C)C
Result string: 159 to 161 °C

Query string: Could you share which melting point value was measured for Nc1cc(OCCC2CCCCC2)nc(N)n1 ?
Result string: 142 °C

Query string: Report melting point for O=[N+]([O-])c1ccc(Sc2ccc(C(F)(F)F)cc2)c2nonc12 please.
Result string: 134 to 138 °C
